Biological target: T1, hFZD8 CRD-Fc (human, UniProt Q9H461 28-158, limits assumed)
T1 construct: domain: CRD; bought (R&D Systems); not shown: Fc part
T1 sequence (looked up): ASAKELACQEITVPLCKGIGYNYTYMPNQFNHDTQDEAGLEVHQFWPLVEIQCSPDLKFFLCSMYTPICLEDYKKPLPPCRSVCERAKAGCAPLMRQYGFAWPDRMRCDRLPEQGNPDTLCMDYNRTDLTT
Assay: spot phage ELISA
For each of the binders below, state its signal:noise ratio.
The reply should be a number, written without any unit.

What does the record list as signal:noise ratio for PQDLLDWCHYMIVSSD [SEQ ID NO 3] ?
1.3

Note, next up: TYFDDICNLILPWANP [SEQ ID NO 2]
1.4

Note, next up: DTDLLQWCLWFT [SEQ ID NO 14]
6

Note, next up: LPSDDLEFWCHVMY (also called Fz7-21) [SEQ ID NO 13]
1.1
